Overview of recorded kon for various binders
# target: T1, human PD-L1 (Cat. #10084-H08H, Sino Biological) (human, UniProt Q9NZQ7 19-239)
# T1 construct: Bought recombinant protein used in the Biacore test; also called hPDL1; hPD-L1
# T1 sequence (Q9NZQ7 19-239 limits assumed): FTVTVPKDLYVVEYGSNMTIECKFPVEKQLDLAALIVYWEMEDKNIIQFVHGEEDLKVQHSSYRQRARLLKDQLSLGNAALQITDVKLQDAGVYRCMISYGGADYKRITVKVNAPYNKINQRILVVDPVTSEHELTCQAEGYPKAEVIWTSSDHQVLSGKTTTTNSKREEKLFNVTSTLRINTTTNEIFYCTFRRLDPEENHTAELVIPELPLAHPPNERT
# protocol.details: SPR, Biacore X100, 1:1 Langmuir
# number only, unit M⁻¹ s⁻¹ dropped from output

binder	quantity.unit	kon
H12L64 (antibody, human IgG1, kappa, V domains shown, from the HRP00052 mutant library; also called 24D5 H12 and 24D5 L64) VH: QVQLVQSGAEVKKPGASVKVSCKASGYTFTSYWMHWVRQAPGQGLEWMGRITPSSGFAMYNEKFKNRVTMTRDTSTSTVYMELSSLRSEDTAVYYCARGGSSYDYFDYWGQGTTVTVSS VL: DIVLTQSPASLAVSPGQRATITCRASESVSIHGTHLMHWYQQKPGQPPKLLIYVASYAASGVPARFSGSGSGTDFTLTINPVEAEDTANYYCQQSFEDPLTFGQGTKLEIKR	M⁻¹ s⁻¹	2.18e+06
H7L11 (antibody, human IgG1, kappa, V domains shown, also called 9-2 H7 and 9-2 L11) VH: QVQLQESGPGLVKPSQTLSLTCTVSGGSISNDYWTWIRQHPGKGLEYIGMISVAGSTYHTPSLKGRVTISRDTSKNQFSLKLSSVTAADTAVYYCARSGGWLAPFDYWGRGTLVTVSS VL: DIVMTQSPDSLAVSLGERATINCKSSQSLFYHSNQKHSLAWYQQKPGQPPKLLIYGASTRESGVPDRFSGSGSGTDFTLTISSLQAEDVAVYYCQQYYGYPYTFGGGTKVEIKR	M⁻¹ s⁻¹	281000

Then there is this binder:
The value of kon measured for the binder H14L61 (antibody, human IgG1, kappa, V domains shown, also called 24D5 H14 and 24D5 L61) VH: QVQLVQSGAEVKKPGASVKVSCKASGYTFTSYWMHWVRQAPGQGLEWMGRIHPSLGLPLYNEKFKNRVTMTRDTSTSTVYMELSSLRSEDTAVYYCARGGSSYDYFDYWGQGTTVTVSS VL: DIVLTQSPASLAVSPGQRATITCRASESVSIHGTHLMHWYQQKPGQPPKLLIYAASNLESGVPARFSGSGSGTDFTLTINPVEAEDTANYYCQQSFEDPLTFGQGTKLEIKR turned out to be 2.4e+06
